system: AncSZ; assay: phosphorylation enrichment, bacterial display (enrichment ratio); higher = better substrate or ligand; peptides without Tyr show the background;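 also: frequency after pTyr selection over input frequency; kinase dosed for 20-30% of maximal phosphorylation in three min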
Please respond with reported phosphorylation enrichment for every item in the list.
Please reply with the value in numeric form only.

Please provide the recorded phosphorylation enrichment for SQKRKYIEIDS [SDAD1_Y580] , tested on AncSZ.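 Also: frequency after pTyr selection over input frequency; kinase dosed for 20-30% of maximal phosphorylation in three min.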
0.818

Param readout = phosphorylation enrichment; param system = AncSZ; param query = KAPVDYIRKLQ [MITF_Y360_S357P] ; response: value;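 also: 11-residue human phosphosite peptides and single-mutation variants displayed on the E. coli surface, counted by deep sequencing, each peptide's frequency after selection divided by its frequency in the unselected input library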;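 also: frequency after pTyr selection over input frequency; kinase dosed for 20-30% of maximal phosphorylation in three min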
0.547

What value of phosphorylation enrichment on AncSZ does ENFDDYMKEVG [FABP4_Y20] have?
1.23

Provide value of phosphorylation enrichment for this record tested with AncSZ: QPGDICHQTWA [GBA_Y244_Y244C]
0.796

Which phosphorylation enrichment is reported with AncSZ for this entry: VSNFNYFFHRE [KCNA1_Y413_YF] ?
1.12

Notebook: pull reported phosphorylation enrichment for AncSZ, entry QRIYQYIRSRF [DYRK1B_Y273_Q275R]
0.887

Hello, I am looking for reported phosphorylation enrichment with AncSZ for KWHREYNFKYV [RICTOR_Y835_S837F] . Could you help?
1.04

Form field: phosphorylation enrichment recorded for CTTIHYNNMCN [TP53_Y234_Y236N] with AncSZ (enter value)
0.734

phosphorylation enrichment of EVEPRYVVLFD [ERCC4_Y577_YF] on AncSZ?
1.18

Identify the measured phosphorylation enrichment of ARMTNCGLPRF [TSPAN12_Y138_Y138C_YF] for AncSZ.
0.58

What measured phosphorylation enrichment is associated with VHKKGYNKLNQ [ZNF676_Y98_E96K] on AncSZ?
0.408

----------
target: Grb2 SH2 (UniProt P62993); experiment: SH2 binding enrichment of the phosphorylated peptide, bacterial display (enrichment ratio); higher = better substrate or ligand; peptides without Tyr show the background
Sequence (P62993 whole entry, looked up): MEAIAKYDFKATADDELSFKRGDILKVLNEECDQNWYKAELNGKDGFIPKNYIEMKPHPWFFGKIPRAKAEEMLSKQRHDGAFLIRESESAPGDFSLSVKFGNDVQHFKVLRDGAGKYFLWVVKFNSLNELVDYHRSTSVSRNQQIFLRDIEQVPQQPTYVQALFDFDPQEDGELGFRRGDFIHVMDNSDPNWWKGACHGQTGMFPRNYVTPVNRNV
Value Type: SH2 binding enrichment
The answer should be a number; do not append a unit.

Entry under review: RTEAQYRFIFM [PTPN11_Y511_Q506R_YF] . Reported SH2 binding enrichment?
0.665

Request the reported SH2 binding enrichment associated with AFPGEYIPTVF [RAC1_Y32]
1.05

Requested read-out: SH2 binding enrichment. Entry: CNPLRYPTIMI [OR6K6_Y160]
0.822

Would you kindly share the measured SH2 binding enrichment for RIGRKYKKVRF [F8_Y442] ?
0.488

Value lookup for SH2 binding enrichment; key = REVVNYVQKRN [RMI1_Y450]
1.1

Reported SH2 binding enrichment, sequence `KACNPYKPPGP` : ____
1.01

Entry under review: LDLPGYCLLRE [CCDC116_Y291_P293L] . Reported SH2 binding enrichment?
0.686

What SH2 binding enrichment value was documented for this sequence, LMVFEYMRHGN [NTRK1_Y591_D596N] ?
1.65

I would be grateful if you could share the reported SH2 binding enrichment for FTGDIYSSSNL [LZTR1_Y141_N143S_YF] .
0.793

Which SH2 binding enrichment value is on record for GIVKAYYVHAR [AIPL1_Y267_R270H] ?
1.23

Name the reported SH2 binding enrichment value associated with the sequence LAEMNYVHQDL [EPHB1_Y740_R743Q]
0.983

Please give the measured SH2 binding enrichment for this sequence: IHYPPYTDWNQ [ALDH3B2_Y365]
0.883

Given the sequence VEKGSYSALLA [ABCC2_Y845] , what is its reported SH2 binding enrichment?
0.663

Would you kindly share the measured SH2 binding enrichment for LSQDVYEEDSY [RET_Y900_R897Q] ?
1.1

Data request, read-out SH2 binding enrichment, for GIVEDYRPPFY [ACVRL1_Y421]
0.731

Suppose we examine the sequence IFCIQYNIRAF [MYH4_Y820] ; what SH2 binding enrichment value has been reported?
1.08

Can you look up the measured SH2 binding enrichment of RRMLQYLTVND [PPFIBP2_Y663] for me?
0.994

Please report the recorded SH2 binding enrichment for STASGYSDVTD [DTX2_Y425] .
0.851

Form field: reported SH2 binding enrichment of AIFEGYALPHA [ACTC1_Y171_P166A_YF]
0.932

Quick one: SH2 binding enrichment for NFRTTYVNANE [KCNH2_Y475] ?
15.1

Field request: SH2 binding enrichment | item: FADIAYNYRHR [PAH_Y166_G171R]
0.866

Look at this sequence and give its reported SH2 binding enrichment. YDEYRYRSFIK [CFTR_Y517_V520F]
0.901

Look up SH2 binding enrichment for this sequence: VSRGRYRPEEC [B4GALT4_Y113_Q116E]
0.699

# query: SH2 binding enrichment of entry ITVPAYFNDLQ [HSPA9_Y196_S200L]
1.15

Reported SH2 binding enrichment for SLLTDYSPQLQ [OTC_Y345] : what is it?
0.708

What measured SH2 binding enrichment goes with DDDPEYRKFLE [UPF3B_Y160] ?
0.834

Fill in: SH2 binding enrichment of NTFENYWPFFQ [GATM_Y103_K102N_YF] is ___
1.06

Consider the sequence shown here: NKEPRYQEDPP [TJP2_Y479] What is its recorded SH2 binding enrichment?
1.43

Quick check: SH2 binding enrichment of GNFSGYDDAWD [POLR1C_Y36_YF] ?
0.832

Return reported SH2 binding enrichment; argument: QDIMAYRGREV [BCL6_Y157]
0.769
